Subject of test: Ba/F3 HER2-YVMA cells (HER2-A775_G776insYVMA) (Homo sapiens, UniProt P04626, DUP772-775, cells depend on it)
Sequence (P04626 with tags, fused parts or gaps DUP772-775): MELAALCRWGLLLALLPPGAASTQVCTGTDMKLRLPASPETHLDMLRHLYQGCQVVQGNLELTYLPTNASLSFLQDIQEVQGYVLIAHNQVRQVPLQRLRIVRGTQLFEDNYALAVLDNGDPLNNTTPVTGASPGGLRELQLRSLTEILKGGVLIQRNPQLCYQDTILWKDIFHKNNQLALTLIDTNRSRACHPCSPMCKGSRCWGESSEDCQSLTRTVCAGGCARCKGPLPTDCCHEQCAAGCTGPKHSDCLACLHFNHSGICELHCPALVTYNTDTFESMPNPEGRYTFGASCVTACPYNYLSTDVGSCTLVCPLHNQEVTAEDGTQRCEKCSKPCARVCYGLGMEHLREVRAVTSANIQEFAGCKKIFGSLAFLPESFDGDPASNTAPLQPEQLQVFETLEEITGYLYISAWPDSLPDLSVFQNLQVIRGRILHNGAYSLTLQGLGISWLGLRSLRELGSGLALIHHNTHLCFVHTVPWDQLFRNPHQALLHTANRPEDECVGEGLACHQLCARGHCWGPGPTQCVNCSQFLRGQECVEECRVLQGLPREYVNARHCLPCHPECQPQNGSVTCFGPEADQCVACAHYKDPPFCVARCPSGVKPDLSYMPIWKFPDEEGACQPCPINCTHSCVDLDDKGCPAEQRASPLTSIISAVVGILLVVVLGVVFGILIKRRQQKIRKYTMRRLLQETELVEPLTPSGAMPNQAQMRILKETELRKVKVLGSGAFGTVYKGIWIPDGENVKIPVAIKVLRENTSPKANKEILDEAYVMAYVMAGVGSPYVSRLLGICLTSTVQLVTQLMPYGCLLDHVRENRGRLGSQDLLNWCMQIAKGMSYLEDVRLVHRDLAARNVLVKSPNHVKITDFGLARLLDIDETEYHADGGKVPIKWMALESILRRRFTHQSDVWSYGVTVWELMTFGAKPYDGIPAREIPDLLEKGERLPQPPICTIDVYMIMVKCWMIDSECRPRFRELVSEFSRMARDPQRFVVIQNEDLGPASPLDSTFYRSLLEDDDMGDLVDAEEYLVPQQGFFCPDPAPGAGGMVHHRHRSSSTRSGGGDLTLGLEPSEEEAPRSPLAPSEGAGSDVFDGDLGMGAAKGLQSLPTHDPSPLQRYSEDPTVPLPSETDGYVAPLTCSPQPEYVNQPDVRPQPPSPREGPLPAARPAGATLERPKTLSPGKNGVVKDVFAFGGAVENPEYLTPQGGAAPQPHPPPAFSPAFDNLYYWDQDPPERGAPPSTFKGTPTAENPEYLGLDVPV
Protocol text: Cell proliferation assay (CellTiter-Glo), Ba/F3 HER2-YVMA
Type: cell-based
Condition context: read-out: Ba/F3 HER2-YVMA cell proliferation IC50
We begin with a simple list: items and their reported GI50.

Smiles code	GI50
C=CC(=O)N1CCC(c2ncc3ncnc(Nc4ccc(Oc5ccn6ncnc6c5)c(C(F)F)c4F)c3n2)=C[C@@H]1C	< 100 nM
Cc1c(Oc2ccn3ncnc3c2)ccc(Nc2ncnc3cnc(C4=CCN(C(=O)/C=C/CN(C)C)CC4)nc23)c1F	< 100 nM
C=CC(=O)N1CC=C(c2ccc3ncnc(Nc4ccc(Oc5ccn6ncnc6c5)c(C)c4)c3n2)C1	100 to 500 nM
C=CC(=O)N1CCN(c2ncc3ncnc(Nc4ccc(Oc5ccn6ncnc6c5)c(C)c4F)c3n2)CC1(C)C	< 100 nM
C=CC(=O)N1CCN(c2ncc3ncnc(Nc4ccc(Oc5ccn6ncnc6c5)c(C)c4F)c3n2)C[C@H]1C	< 100 nM
C=CC(=O)N1CC=C(c2ncc3ncnc(Nc4ccc(Oc5ccn6ncnc6c5)c(C(F)F)c4F)c3n2)C[C@@H]1C	100 to 500 nM

# next compound below
I am curious: what GI50 value has been reported for "C=CC(=O)N1CCN(c2ncc3ncnc(Nc4ccc(Oc5ccn6ncnc6n5)c(C)c4F)c3n2)C[C@H]1C" ?
100 to 500 nM

----------
We begin with a simple list: items and their reported IC50.
Subject of test: wild-type EGFR (A431 cells) (Homo sapiens)
Construct: A431 bears amplification of the wild-type EGFR gene; endogenous in cells
Protocol text: Cellular phosphorylation assay, pEGFR (phospho-EGFR Tyr1068 AlphaLISA) in A431
Condition context: compound incubated for 5 hours, EGF (30 ng/mL) for 15 minutes

Some compounds with recorded IC50:
Smiles code	Result
C=CC(=O)N1CC=C(c2ccc3ncnc(Nc4ccc(Oc5cc(C)n6ncnc6c5)c(C)c4)c3n2)CC1	≥ 1 µM
C=CC(=O)N1CCN(c2ncc3ncnc(Nc4cc(C)c(Oc5ccn6ncnc6c5)cc4F)c3n2)[C@H](C)C1	≥ 1 µM
C=CC(=O)N1CCN(c2ccc3ncnc(Nc4ccc(Oc5ccn6ncnc6c5)c(C)c4)c3n2)CC1	0.1 to 0.5 µM
C=CC(=O)N1CCN(c2ncc3ncnc(Nc4cc(C)c(Oc5ccn6ncnc6c5)cc4F)c3n2)[C@@H](C)C1	≥ 1 µM
C=CC(=O)N1CCN(c2ccc3ncnc(Nc4ccc(Oc5ccn6ncnc6c5)c(C)c4)c3n2)[C@@H](C)C1	≥ 1 µM
C=CC(=O)N1CCN(c2ncc3ncnc(Nc4ccc(Oc5ccn6ncnc6n5)c(C)c4F)c3n2)C[C@H]1C	≥ 1 µM

I am curious: what IC50 value has been reported for "C=CC(=O)N1CC=C(c2ccc3ncnc(Nc4ccc(Oc5cc(Cl)n6ncnc6c5)c(C)c4)c3n2)CC1" ?
0.5 to 1 µM

----------
Subject of test: wild-type EGFR (A431 cells) (Homo sapiens)
Construct: A431 bears amplification of the wild-type EGFR gene; endogenous in cells
Protocol text: Cellular phosphorylation assay, pEGFR (phospho-EGFR Tyr1068 AlphaLISA) in A431
Condition context: compound incubated for 5 hours, EGF (30 ng/mL) for 15 minutes
Metric: IC50

Molecule	Subject of test	Result
C=CC(=O)N1CCN(c2ncc3ncnc(Nc4ccc(Oc5ccn6ncnc6c5)c(C(F)(F)F)c4F)c3n2)C[C@H]1C [Example 39]	wild-type EGFR (A431 cells) (Homo sapiens)	≥ 1 µM
C=CC(=O)N1CCN(c2ncc3ncnc(Nc4cc(C)c(Oc5ccn6ncnc6c5)cc4F)c3n2)C[C@H]1C [Example 50]	wild-type EGFR (A431 cells) (Homo sapiens)	≥ 1 µM
C=CC(=O)N1CCN(c2ncc3ncnc(Nc4ccc(Oc5ccn6ncnc6c5)c(C)c4F)c3n2)[C@H](C)[C@@H]1C (relative stereo) [Example 40]	wild-type EGFR (A431 cells) (Homo sapiens)	< 0.1 µM
C=CC(=O)N1CC=C(c2ccc3ncnc(Nc4cc(C)c(Oc5ccn6ncnc6c5)cc4F)c3n2)CC1 [Example 11]	wild-type EGFR (A431 cells) (Homo sapiens)	≥ 1 µM
C=CC(=O)N1CC=C(c2ncc3ncnc(Nc4ccc(Oc5ccn6ncnc6c5)c(C)c4F)c3n2)C[C@H]1C [Example 80]	wild-type EGFR (A431 cells) (Homo sapiens)	≥ 1 µM
C=CC(=O)N1CCN(c2ncc3ncnc(Nc4ccc(Oc5ccn6ncnc6c5)c(Cl)c4F)c3n2)C[C@H]1C [Example 82]	wild-type EGFR (A431 cells) (Homo sapiens)	< 0.1 µM

# next molecule below
Lab note: need IC50 with wild-type EGFR (A431 cells) (Homo sapiens) for entry Cc1cc(Nc2ncnc3ccc(N4CCN(C(=O)/C=C/CN(C)C)CC4)nc23)ccc1Oc1ccn2ncnc2c1 [Example 7] , please look it up.
0.1 to 0.5 µM

----------
We begin with a simple list: items and their reported GI50.
Subject of test: Ba/F3 HER2-YVMA cells (HER2-A775_G776insYVMA) (Homo sapiens, UniProt P04626, DUP772-775, cells depend on it)
Protocol text: Cell proliferation assay (CellTiter-Glo), Ba/F3 HER2-YVMA
Assay type: cell-based
Condition context: read-out: Ba/F3 HER2-YVMA cell proliferation IC50

Some molecules with recorded GI50:
Molecule	GI50
C=CC(=O)N1CC=C(c2ccc3ncnc(Nc4ccc(Oc5ccn6ncnc6c5)c(C)c4)c3n2)CC1	< 0.1 µM
C=CC(=O)N1CC=C(c2nc3c(Nc4ccc(Oc5ccn6ncnc6c5)c(C)c4)ncnc3cc2OC)CC1	< 0.1 µM
C=C(F)C(=O)N1CC=C(c2ccc3ncnc(Nc4ccc(Oc5ccn6ncnc6c5)c(C)c4)c3n2)CC1	≥ 1 µM
C=CC(=O)N1CC=C(c2ncc3ncnc(Nc4ccc(Oc5ccn6ncnc6c5)c(C)c4F)c3n2)C[C@H]1C	< 0.1 µM
C=CC(=O)N1CCCN(c2ccc3ncnc(Nc4ccc(Oc5ccn6ncnc6c5)c(C)c4)c3n2)CC1	0.1 to 0.5 µM
C=CC(=O)N1CC=C(c2ccc3ncnc(Nc4ccc(Oc5ccn6ncnc6c5)c(C)c4)c3c2OC)CC1	0.1 to 0.5 µM
C=CC(=O)N1CCN(c2ncc3ncnc(Nc4ccc(Oc5ccn6ncnc6c5)c(C)c4F)c3n2)[C@H](C)[C@@H]1C (relative stereo)	< 0.1 µM
C=CC(=O)N1CCN(c2ncc3ncnc(Nc4ncc(Oc5ccn6ncnc6c5)c(C)c4F)c3n2)C[C@H]1C	0.5 to 1 µM

I am curious: what GI50 value has been reported for "C=CC(=O)N1CCN(c2ccc3ncnc(Nc4ccc(Oc5ccn6ncnc6c5)c(C)c4)c3n2)C(=O)C1" ?
< 0.1 µM

I am curious: what GI50 value has been reported for "C=CC(=O)N1CC=C(c2ncc3ncnc(Nc4ccc(Oc5cc(C)n6ncnc6c5)c(C)c4F)c3n2)C[C@@H]1C" ?
< 0.1 µM

I am curious: what GI50 value has been reported for "C=CC(=O)N1CC=C(c2ncc3ncnc(Nc4ccc(Oc5ccn6ncnc6c5)c(C)c4F)c3n2)CC1" ?
< 0.1 µM

I am curious: what GI50 value has been reported for "C=CC(=O)N1CCC(c2ncc3ncnc(Nc4ccc(Oc5ccn6ncnc6c5)c(C)c4F)c3n2)=C[C@@H]1C" ?
< 0.1 µM

I am curious: what GI50 value has been reported for "C=CC(=O)N1CC=C(c2ccc3ncnc(Nc4ccc(Oc5ccc6ocnc6c5)c(C)c4)c3n2)CC1" ?
< 0.1 µM

----------
Subject of test: wild-type EGFR (A431 cells) (Homo sapiens, UniProt P00533)
Construct: A431 bears amplification of the wild-type EGFR gene; endogenous in cells
Sequence (P00533 25-1210): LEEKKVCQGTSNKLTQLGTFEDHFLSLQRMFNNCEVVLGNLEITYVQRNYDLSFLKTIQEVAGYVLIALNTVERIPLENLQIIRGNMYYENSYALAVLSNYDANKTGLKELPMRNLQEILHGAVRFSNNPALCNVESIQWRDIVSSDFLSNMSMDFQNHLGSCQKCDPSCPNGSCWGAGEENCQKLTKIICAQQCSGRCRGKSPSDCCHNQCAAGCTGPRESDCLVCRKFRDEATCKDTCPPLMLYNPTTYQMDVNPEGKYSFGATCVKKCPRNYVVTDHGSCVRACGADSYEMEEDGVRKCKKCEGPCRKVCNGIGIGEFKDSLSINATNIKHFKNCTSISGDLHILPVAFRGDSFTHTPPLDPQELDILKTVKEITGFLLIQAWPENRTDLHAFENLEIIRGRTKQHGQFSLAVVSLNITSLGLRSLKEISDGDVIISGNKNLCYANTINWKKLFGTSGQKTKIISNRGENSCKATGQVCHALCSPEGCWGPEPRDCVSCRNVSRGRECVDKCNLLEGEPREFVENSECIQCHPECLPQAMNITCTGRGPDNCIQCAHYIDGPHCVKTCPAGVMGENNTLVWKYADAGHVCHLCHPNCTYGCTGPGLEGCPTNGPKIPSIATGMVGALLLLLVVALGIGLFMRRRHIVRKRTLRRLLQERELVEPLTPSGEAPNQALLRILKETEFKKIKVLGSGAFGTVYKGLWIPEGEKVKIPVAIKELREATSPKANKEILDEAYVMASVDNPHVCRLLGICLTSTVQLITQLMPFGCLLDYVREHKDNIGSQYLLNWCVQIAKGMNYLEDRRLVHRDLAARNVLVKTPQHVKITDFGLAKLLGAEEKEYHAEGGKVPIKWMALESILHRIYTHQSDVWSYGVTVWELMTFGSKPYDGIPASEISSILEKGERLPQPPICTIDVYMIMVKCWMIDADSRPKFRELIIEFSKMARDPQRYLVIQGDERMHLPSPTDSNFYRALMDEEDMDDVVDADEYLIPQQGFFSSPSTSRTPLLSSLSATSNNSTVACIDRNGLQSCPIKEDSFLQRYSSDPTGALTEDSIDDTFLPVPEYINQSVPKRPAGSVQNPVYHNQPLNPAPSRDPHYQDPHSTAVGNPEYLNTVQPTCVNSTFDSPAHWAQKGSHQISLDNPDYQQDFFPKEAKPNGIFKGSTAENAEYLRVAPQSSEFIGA
Protocol text: Cellular phosphorylation assay, pEGFR (phospho-EGFR Tyr1068 AlphaLISA) in A431
Condition context: compound incubated for 5 hours, EGF (30 ng/mL) for 15 minutes
pIC50: −log10 of the molar value.
Metric: pIC50

Smiles code	Subject of test	Result
C=CC(=O)N1CCN(c2ccc3ncnc(Nc4ncc(Oc5ccn6ncnc6c5)c(C)c4F)c3c2F)C[C@H]1C	wild-type EGFR (A431 cells) (Homo sapiens, UniProt P00533)	≤ 6.00
C=CC(=O)N1CCN(c2ncc3ncnc(Nc4ccc(Oc5ccn6ncnc6c5)c(C)c4F)c3n2)CC1(C)C	wild-type EGFR (A431 cells) (Homo sapiens, UniProt P00533)	6.30 to 7.00
C=CC(=O)N1CC=C(c2ccc3ncnc(Nc4ccc(Oc5ccn6ncnc6c5)c(C)c4)c3n2)C[C@H]1C	wild-type EGFR (A431 cells) (Homo sapiens, UniProt P00533)	6.30 to 7.00
C=CC(=O)N1CCN(c2ccc3ncnc(Nc4ccc(Oc5ccn6ncnc6c5)c(C)c4F)c3c2F)CC1	wild-type EGFR (A431 cells) (Homo sapiens, UniProt P00533)	≤ 6.00
C=CC(=O)N1CC=C(c2ccc3ncnc(Nc4ccc(Oc5ccn6ncnc6c5)c(C)c4)c3c2F)CC1	wild-type EGFR (A431 cells) (Homo sapiens, UniProt P00533)	≤ 6.00
C=CC(=O)N1CC=C(c2ncc3ncnc(Nc4cc(C)c(Oc5ccn6ncnc6c5)cc4F)c3n2)C[C@@H]1C	wild-type EGFR (A431 cells) (Homo sapiens, UniProt P00533)	≤ 6.00
C=CC(=O)N1CCN(c2ccc3ncnc(Nc4ccc(Oc5ccn6ncnc6c5)c(C)c4F)c3c2F)C[C@H]1C	wild-type EGFR (A431 cells) (Homo sapiens, UniProt P00533)	≤ 6.00
C=CC(=O)N1CCN(c2ccc3ncnc(Nc4ccc(Oc5ccn6ncnc6c5)c(C)c4)c3n2)C[C@H]1C	wild-type EGFR (A431 cells) (Homo sapiens, UniProt P00533)	6.30 to 7.00
C=CC(=O)N1CCC(c2ncc3ncnc(Nc4cc(C)c(Oc5ccn6ncnc6c5)cc4F)c3n2)=C[C@@H]1C	wild-type EGFR (A431 cells) (Homo sapiens, UniProt P00533)	≤ 6.00
C=CC(=O)N1CCN(c2ncc3ncnc(Nc4ccc(Oc5ccn6ncnc6c5)c(C)c4F)c3n2)CC1	wild-type EGFR (A431 cells) (Homo sapiens, UniProt P00533)	6.00 to 6.30

I am curious: what pIC50 value has been reported for "C=CC(=O)N1CC(c2ccc3ncnc(Nc4ccc(Oc5ccn6ncnc6c5)c(C)c4)c3n2)C1" ?
≤ 6.00

I am curious: what pIC50 value has been reported for "C=CC(=O)N1C[C@@H]2CC[C@H]1CN2c1ncc2ncnc(Nc3ccc(Oc4ccn5ncnc5c4)c(C)c3F)c2n1" ?
> 7.00
